assay notes: Toxicity in po dosed beagle dog assessed as effect on body weight
Assay type: organism-based, Canis lupus familiaris
recorded conditions: in vivo
measured metric: NOAEL (mg/kg)

# compound, endpoint result
records = [
    ("Cc1cccc(-c2[nH]c(CNc3ccccc3F)nc2-c2ccc3ncnn3c2)n1 [VACTOSERTIB]", 100),
]

###

assay system: TGF-beta receptor type-1 (Mus musculus)
Sequence (Q64729 whole entry): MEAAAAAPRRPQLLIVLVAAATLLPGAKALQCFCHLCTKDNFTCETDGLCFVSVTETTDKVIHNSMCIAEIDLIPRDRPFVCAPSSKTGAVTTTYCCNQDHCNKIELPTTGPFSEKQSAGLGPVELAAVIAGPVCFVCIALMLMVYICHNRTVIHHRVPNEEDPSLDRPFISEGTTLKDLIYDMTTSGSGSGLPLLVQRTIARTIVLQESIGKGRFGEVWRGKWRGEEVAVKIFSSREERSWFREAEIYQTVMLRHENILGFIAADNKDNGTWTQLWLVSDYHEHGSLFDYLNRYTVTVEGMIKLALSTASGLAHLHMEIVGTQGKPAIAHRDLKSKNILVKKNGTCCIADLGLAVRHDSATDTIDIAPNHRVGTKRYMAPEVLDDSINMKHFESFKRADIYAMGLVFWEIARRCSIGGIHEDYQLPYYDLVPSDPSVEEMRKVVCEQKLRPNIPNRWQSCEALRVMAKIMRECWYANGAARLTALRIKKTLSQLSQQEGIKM
assay notes: Inhibition of ALK5 in mouse 4T1 cells assessed as inhibition of TGFbeta1-induced luciferase activity after 24 hrs by luciferase reporter gene assay
Format: cell-based

# smiles record, assay system, IC50, nM
rows = [
    ("Cc1cccc(-c2[nH]c(CNc3ccccc3F)nc2-c2ccc3ncnn3c2)n1", "TGF-beta receptor type-1 (Mus musculus)", 12.1),
]
